- Test system: 454973-116-R2-J3-PDC spheroids, percent test/control viability;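 further: spheroids exposed to compounds for 7 days before readout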
- procedure summary: Anticancer human tumor 454973-116-R2-J3-PDC patient-derived pancreatic carcinoma cell line growth inhibition [CLK]; active means viability on the fitted dose curve at most 10% of control; inactive means the rest
- settings: second compound 3.16 µM; first compound 0.003 µM; spheroids with HUVEC and MSC
Thanks in advance; please answer with one of these: active, inactive

Example entries and their recorded answers appear below.
compound="C=CC(=O)Nc1cc(Nc2nccc(-c3cn(C)c4ccccc34)n2)c(OC)cc1N(C)CCN(C)C + CNC(=O)c1ccc(Nc2nc(OC3CCCC3)c3c(-c4ccc5nc(C)oc5c4)c[nH]c3n2)c(OC)c1" cat=inactive
compound="CC(C)CC(NC(=O)C(Cc1ccccc1)NC(=O)c1cnccn1)B(O)O (centres undefined) + CN1CCN(c2cc(C(=O)Nc3cc4cc(-c5cnn(C)c5)ccc4cn3)ccn2)CC1" cat=active
compound="C=CC(=O)Nc1cc(Nc2nccc(-c3cn(C)c4ccccc34)n2)c(OC)cc1N(C)CCN(C)C + CN1CCN(c2cc(C(=O)Nc3cc4cc(-c5cnn(C)c5)ccc4cn3)ccn2)CC1" cat=active

Here is another compound to look at.
[ask] Could you check what this test reported for CC(C)CC(NC(=O)C(Cc1ccccc1)NC(=O)c1cnccn1)B(O)O (centres undefined) + CNC(=O)c1ccc(Nc2nc(OC3CCCC3)c3c(-c4ccc5nc(C)oc5c4)c[nH]c3n2)c(OC)c1 ?
[reply] active

Each recorded value in this set is attributed to PubChem BioAssay AID2060618.
